# credit: ChEMBL document CHEMBL1156112

Target: Tyrosine-protein kinase Fyn (Homo sapiens, UniProt P06241)
Sequence (P06241 whole entry): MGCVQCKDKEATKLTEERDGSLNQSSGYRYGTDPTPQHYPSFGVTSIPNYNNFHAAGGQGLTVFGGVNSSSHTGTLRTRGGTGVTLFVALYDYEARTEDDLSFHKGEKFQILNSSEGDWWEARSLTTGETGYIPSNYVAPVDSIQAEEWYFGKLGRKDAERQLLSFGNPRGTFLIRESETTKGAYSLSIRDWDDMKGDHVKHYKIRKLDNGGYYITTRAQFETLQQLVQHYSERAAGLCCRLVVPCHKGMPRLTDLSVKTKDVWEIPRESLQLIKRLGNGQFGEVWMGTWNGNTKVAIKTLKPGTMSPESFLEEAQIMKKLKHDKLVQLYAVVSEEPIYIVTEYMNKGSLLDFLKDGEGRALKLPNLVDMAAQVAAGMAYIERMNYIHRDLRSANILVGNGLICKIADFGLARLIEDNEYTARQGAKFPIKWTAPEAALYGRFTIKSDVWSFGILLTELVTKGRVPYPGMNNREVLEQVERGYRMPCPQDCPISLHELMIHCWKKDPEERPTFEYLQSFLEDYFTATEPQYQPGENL
Experiment: Inhibition of human recombinant Fyn
property.name: IC50 (µM)
Could you give me the number in µM? Just the number is fine.

Data request: Lab note: need IC50 for CN1CCN(c2nc(C3=C(c4c[nH]c5ccccc45)C(=O)NC3=O)c3ccccc3n2)CC1 [SOTRASTAURIN] on Tyrosine-protein kinase Fyn (Homo sapiens, UniProt P06241), anyone have it?
Data returned: 5.5

====

Experiment: Cmax in OFA rat at 20 mg/kg, po
Assay type: ADME, organism-based
Parameters: dose 20 mg/kg, route oral
Settings: in vivo
property.name: Cmax (µg/mL)
Could you give me the number in µg/mL? Just the number is fine.

structure.notation: CN(C)CCOc1cc(C2=C(c3c[nH]c4ccccc34)C(=O)NC2=O)c2ccccc2c1
property.name: Cmax
reported.value: 0.0162

Read the next record carefully.
Data request: Any idea what Cmax was measured for CN1CCN(c2nc(C3=C(c4c[nH]c5ccccc45)C(=O)NC3=O)c3ccccc3n2)CC1 ?
Data returned: 0.622

====

The reader will find IC50 measurements below, all made with Protein kinase C epsilon type (Homo sapiens).
Sequence (Q02156 whole entry): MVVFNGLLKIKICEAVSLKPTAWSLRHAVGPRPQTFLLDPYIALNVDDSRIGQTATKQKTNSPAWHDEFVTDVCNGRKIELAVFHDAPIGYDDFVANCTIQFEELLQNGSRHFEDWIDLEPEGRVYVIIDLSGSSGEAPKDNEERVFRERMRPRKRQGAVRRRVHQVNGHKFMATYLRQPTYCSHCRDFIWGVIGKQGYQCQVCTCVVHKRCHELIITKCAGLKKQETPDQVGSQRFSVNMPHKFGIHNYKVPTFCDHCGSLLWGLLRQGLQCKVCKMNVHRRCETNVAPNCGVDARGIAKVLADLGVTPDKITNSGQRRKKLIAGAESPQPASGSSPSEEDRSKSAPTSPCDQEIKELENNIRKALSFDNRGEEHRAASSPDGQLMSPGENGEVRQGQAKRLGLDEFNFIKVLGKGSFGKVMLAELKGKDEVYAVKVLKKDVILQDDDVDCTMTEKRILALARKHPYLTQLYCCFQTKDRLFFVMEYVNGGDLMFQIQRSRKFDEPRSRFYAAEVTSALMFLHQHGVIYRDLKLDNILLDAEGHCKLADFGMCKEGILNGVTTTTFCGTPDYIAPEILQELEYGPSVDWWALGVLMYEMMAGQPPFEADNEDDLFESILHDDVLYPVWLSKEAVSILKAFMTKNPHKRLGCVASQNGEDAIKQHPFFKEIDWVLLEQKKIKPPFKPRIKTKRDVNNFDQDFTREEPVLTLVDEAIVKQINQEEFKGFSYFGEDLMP
Could you give me the number in nM? Just the number is fine.

Sample records with IC50:
structure.notation: CN(C)CCCn1cc(C2=C(c3c[nH]c4ccccc34)C(=O)NC2=O)c2ccccc21
reported.value: 6.6
--
structure.notation: CN(C)CCCn1cc(C2=C(c3csc4ccccc34)C(=O)NC2=O)c2ccccc21
reported.value: 285

Read the next record carefully.
Data request: Lab note: need IC50 for CN1CCN(c2cc(C3=C(c4c[nH]c5ccccc45)C(=O)NC3=O)c3ccccc3c2)CC1 on Protein kinase C epsilon type (Homo sapiens), anyone have it?
Data returned: 19

====

Molecular target: Mitogen-activated protein kinase 14 (Homo sapiens)
Sequence (Q16539 whole entry): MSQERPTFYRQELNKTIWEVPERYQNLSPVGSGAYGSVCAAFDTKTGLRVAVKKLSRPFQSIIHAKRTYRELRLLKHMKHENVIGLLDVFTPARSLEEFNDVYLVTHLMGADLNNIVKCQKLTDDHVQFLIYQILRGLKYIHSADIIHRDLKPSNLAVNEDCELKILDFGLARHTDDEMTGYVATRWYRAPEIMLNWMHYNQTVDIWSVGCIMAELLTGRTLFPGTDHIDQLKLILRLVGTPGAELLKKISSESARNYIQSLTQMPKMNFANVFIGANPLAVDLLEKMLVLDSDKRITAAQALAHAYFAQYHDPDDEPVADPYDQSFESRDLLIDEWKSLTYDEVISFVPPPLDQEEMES
Test: Inhibition of human recombinant p38alpha
property.name: IC50

Data request: Any idea what IC50 was measured for CN1CCN(c2nc(C3=C(c4c[nH]c5ccccc45)C(=O)NC3=O)c3ccccc3n2)CC1 [SOTRASTAURIN] ?
Data returned: > 10 µM

====

Target: UniProt P23458
Sequence (P23458 whole entry): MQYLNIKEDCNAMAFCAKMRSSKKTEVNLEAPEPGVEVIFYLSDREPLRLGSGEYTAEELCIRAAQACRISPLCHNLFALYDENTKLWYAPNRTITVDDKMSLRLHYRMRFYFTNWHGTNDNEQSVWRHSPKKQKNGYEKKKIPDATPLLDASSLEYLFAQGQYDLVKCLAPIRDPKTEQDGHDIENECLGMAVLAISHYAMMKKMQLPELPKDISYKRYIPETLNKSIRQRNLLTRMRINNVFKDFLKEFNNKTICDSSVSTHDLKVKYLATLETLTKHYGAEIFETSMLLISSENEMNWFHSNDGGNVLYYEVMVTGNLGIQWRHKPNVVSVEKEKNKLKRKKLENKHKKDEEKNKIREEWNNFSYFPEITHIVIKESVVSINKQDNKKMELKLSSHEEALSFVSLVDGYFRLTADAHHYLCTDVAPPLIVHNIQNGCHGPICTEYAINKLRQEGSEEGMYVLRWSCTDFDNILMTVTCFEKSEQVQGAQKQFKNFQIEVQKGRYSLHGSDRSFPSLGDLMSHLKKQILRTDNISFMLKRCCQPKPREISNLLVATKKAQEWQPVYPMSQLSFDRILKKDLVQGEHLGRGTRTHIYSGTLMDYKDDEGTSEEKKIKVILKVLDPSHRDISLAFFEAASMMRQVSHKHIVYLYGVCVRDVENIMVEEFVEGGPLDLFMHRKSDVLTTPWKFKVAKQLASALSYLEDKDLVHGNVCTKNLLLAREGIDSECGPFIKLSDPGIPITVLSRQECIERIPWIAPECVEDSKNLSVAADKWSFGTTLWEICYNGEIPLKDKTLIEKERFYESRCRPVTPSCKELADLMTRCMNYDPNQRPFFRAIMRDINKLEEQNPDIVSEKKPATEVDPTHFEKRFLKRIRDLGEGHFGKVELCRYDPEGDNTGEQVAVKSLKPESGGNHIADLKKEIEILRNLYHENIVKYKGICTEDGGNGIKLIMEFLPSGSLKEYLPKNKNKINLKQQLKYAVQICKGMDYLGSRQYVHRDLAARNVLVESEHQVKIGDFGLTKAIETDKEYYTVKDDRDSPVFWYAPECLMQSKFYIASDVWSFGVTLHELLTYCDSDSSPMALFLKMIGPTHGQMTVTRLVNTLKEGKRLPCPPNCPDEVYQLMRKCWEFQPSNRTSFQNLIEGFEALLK
Assay: Inhibition of human recombinant JAK1
property.name: IC50 (µM)
Could you give me the number in µM? Just the number is fine.

Data request: Any idea what IC50 was measured for CN1CCN(c2nc(C3=C(c4c[nH]c5ccccc45)C(=O)NC3=O)c3ccccc3n2)CC1 ?
Data returned: 7.3

====

Test: AUC (0 to infinity) in OFA rat at 5 mg/kg, iv
Type: ADME, organism-based
Parameters: time infinity, dose 5 mg/kg, route intravenous
Settings: plasma
Quick reference: AUC(0-inf) of the listed items.
Could you give me the number in µg·h/mL? Just the number is fine.

compound: CN1CCN(c2nc(C3=C(c4c[nH]c5ccccc45)C(=O)NC3=O)c3ccccc3n2)CC1 [SOTRASTAURIN]
unit.label: µg·h/mL
AUC(0-inf): 1.63

Read the next record carefully.
Data request: Any idea what AUC(0-inf) was measured for CN(C)CCOc1cc(C2=C(c3c[nH]c4ccccc34)C(=O)NC2=O)c2ccccc2c1 ?
Data returned: 2.69

====

Target: Cyclin-dependent kinase 2/cyclin A (Homo sapiens, UniProt P24941)
Assay: Inhibition of human recombinant CDK2/cyclin A
property.name: IC50 (nM)
Could you give me the number in nM? Just the number is fine.

Data request: Any idea what IC50 was measured for CN1CCN(c2nc(C3=C(c4c[nH]c5ccccc45)C(=O)NC3=O)c3ccccc3n2)CC1 [SOTRASTAURIN] ?
Data returned: 2300
